assay_overview: qHTS for inhibitors of Vif-A3G interactions: Cherry picks; also: nearly all actives have a fitted effect of over 80% in size
conditions: HeLa A3G-eYFP + Vif, 24 h; eYFP fluorescence increase; series mostly up to 36.9 µM
Out of some 2,100 compounds screened, about 650 (31%) were called active. About 16% were inconclusive and are not listed. Calls follow the shape of the dose curve; as a rule, active = well fitted inhibition curve with a large enough effect; inconclusive = small, poorly fitted or top-dose-only effect; inactive = flat fitted curve, though single readings scatter. The list shows a part of the results.
Field 'call' accepts active, inactive

Task item: Returns: the outcome recorded for "Cc1ccccc1OCCc1c(C)[nH]c(=S)[nH]c1=O" in this assay.
Reply: inactive

Task item: Returns: the outcome recorded for "Nc1c(C(=O)Nc2nc3ccccc3s2)sc2nc(-c3cccs3)ccc12" in this assay.
Reply: active

Task item: Returns: the outcome recorded for "O=C(Nc1nc2ccccc2s1)c1ccc([N+](=O)[O-])o1" in this assay.
Reply: inactive

* * *

assay_overview: qHTS for inhibitors of Vif-A3G interactions: Cherry picks; also: nearly all actives have a fitted effect of over 80% in size
conditions: HeLa A3G-eYFP + Vif, 24 h; eYFP fluorescence increase; series mostly up to 36.9 µM
Hit rate of the full screen: of about 2,100 compounds, about 650 (31%) were called active. About 16% were inconclusive and are not listed. Calls follow the shape of the dose curve; as a rule, active = well fitted inhibition curve with a large enough effect; inconclusive = small, poorly fitted or top-dose-only effect; inactive = flat fitted curve, though single readings scatter. The list shows a part of the results.
Field 'call' accepts active, inactive

COc1cc2c(c(OC)c1OC)-c1ccc(N(C)CC(OC)OC)c(=O)cc1[C@@H](NC(C)=O)CC2    inactive
N#CC1CC(c2ccccc2)Nc2cc(Cl)ccc2N1 (stereo unspecified)    inactive

Task item: Returns: the outcome recorded for "N#C/C(=C/c1cccs1)c1ccccn1" in this assay.
Reply: active

Task item: Returns: the outcome recorded for "COc1cccc(N2CC(O)=C(c3nc4ccccc4s3)C2=N)c1" in this assay.
Reply: inactive

Task item: Returns: the outcome recorded for COc1ccc2cc(-c3nc(Cl)c4c5c(sc4n3)CC(C)CC5)c(=O)oc2c1 (stereo unspecified) in this assay.
Reply: active

Task item: Returns: the outcome recorded for COc1cc(C(=O)N/N=C/C2CC=CCC2)cc(OC)c1OC (stereo unspecified) in this assay.
Reply: inactive

Task item: Returns: the outcome recorded for "O=C(CSc1ccccc1)Nc1nc2ccccc2[nH]1" in this assay.
Reply: inactive

Task item: Returns: the outcome recorded for "COc1cc2ccccc2cc1C(=O)N/N=C/c1cccnc1" in this assay.
Reply: inactive

Task item: Returns: the outcome recorded for "Cc1ccc(-c2cn3nc(-c4ccccc4)c(-c4ccccc4)nc3n2)cc1" in this assay.
Reply: active

Task item: Returns: the outcome recorded for "Cn1c(=S)c2[nH]c(SCCN3CCCC3)nc2n(C)c1=O" in this assay.
Reply: inactive

Task item: Returns: the outcome recorded for Cc1cc(=O)oc2cc(OCC(=O)N3c4ccccc4CC3C)ccc12 (stereo unspecified) in this assay.
Reply: inactive

* * *

assay_overview: qHTS for inhibitors of Vif-A3G interactions: Cherry picks; also: nearly all actives have a fitted effect of over 80% in size
conditions: HeLa A3G-eYFP + Vif (tagged APOBEC3G with the HIV-1 protein that degrades it), 24 h; eYFP fluorescence increase; series mostly up to 36.9 µM
Among all 2,100 compounds or so, about 650 (31%) were called active. Not shown: some 16% with an inconclusive outcome. The call rests on the fitted dose curve; in most records, active means well fitted inhibition curve with a large enough effect; inconclusive means small, poorly fitted or top-dose-only effect; inactive means flat fitted curve, though single readings scatter. Some of the results follow.
Field 'call' accepts y (active), n (inactive)

Worked cases, answers included:
Cc1ccc2nsnc2c1NC(=O)c1ccc(-c2cc(Cl)ccc2Cl)o1    y
Cc1ccc(NC(=S)Nc2ccccn2)c(C)c1    n
COc1ccccc1-c1nnc2sc(-c3cc4ccccc4o3)nn12    n
CC(=O)Nc1cccc(-c2ccnc3c2CC(C)(C(=O)Nc2cccc(C(C)=O)c2)O3)c1 (centres undefined)    n
CCN(CC)C(=O)c1sc2nc(-c3cccs3)cc(-c3ccc(Cl)cc3)c2c1N    y

Task item: Returns: the outcome recorded for "N#Cc1sc2nc(-c3cccs3)cc(-c3ccc(Cl)cc3)c2c1N" in this assay.
Reply: y

Task item: Returns: the outcome recorded for "Cc1cc(C)cc(NC(=O)/C=C/c2ccc([N+](=O)[O-])s2)c1" in this assay.
Reply: y

Task item: Returns: the outcome recorded for "CCCCCCc1cc2cc(-c3nnc(-c4ccccc4OC)o3)c(=O)oc2cc1O" in this assay.
Reply: y

Task item: Returns: the outcome recorded for "CN(C)CCNc1ccc2ncn3c4ccc(O)cc4c(=O)c1c23" in this assay.
Reply: y
